test system: adjuvant arthritis; assay: Nasal peptide administration in the adjuvant arthritis model; format: in vivo, rats; conditions: 100 μg peptide nasal at days 0, 3, 7, 11; mean±sd, n=4 rats
A collection of sequences and their measured Day of onset

Example cases with answers are listed next.
>>> df
                                   sequence  parameter_measured  value_measured
0  WPSLPSNMD (listed as Rattus sp.) [SEQ ID NO: 48]        Day of onset      13.3 ± 1.0
1  VSSFSLNVE (listed as Rattus sp.) [SEQ ID NO: 26]        Day of onset        13.0 ± 0
2  WPSLPSGLD (listed as Rattus sp.) [SEQ ID NO: 50]        Day of onset      14.3 ± 2.0

Now consider a different sequence.
Quick one: Day of onset of LKSVNGQIE (listed as Rattus sp.) [SEQ ID NO: 15] ?
15.0 ± 1.7

====

target: MHC class II RT1.B^L (Rattus norvegicus, UniProt P20037+P29826); assay: MHC-peptide competition binding assay on isolated RT1.B^L molecules; design: species or system Lewis rat
Sequence (P20037 24-256): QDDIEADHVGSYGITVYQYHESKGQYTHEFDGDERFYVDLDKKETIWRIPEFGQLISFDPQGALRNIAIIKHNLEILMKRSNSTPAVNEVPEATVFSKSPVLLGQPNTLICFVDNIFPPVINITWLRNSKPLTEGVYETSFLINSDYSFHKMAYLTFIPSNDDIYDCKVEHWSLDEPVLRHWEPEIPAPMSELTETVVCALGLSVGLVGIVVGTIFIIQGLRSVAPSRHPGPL
Sequence (P29826 28-263): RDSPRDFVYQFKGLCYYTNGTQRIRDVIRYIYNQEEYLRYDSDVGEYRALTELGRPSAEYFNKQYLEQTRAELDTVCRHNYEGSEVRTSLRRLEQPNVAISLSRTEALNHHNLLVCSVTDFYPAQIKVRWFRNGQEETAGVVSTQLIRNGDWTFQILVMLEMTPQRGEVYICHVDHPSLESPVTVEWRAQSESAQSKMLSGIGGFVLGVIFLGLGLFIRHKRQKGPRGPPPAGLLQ
Ends that are not written are not given here.
A collection of sequences and their measured IC50

>>> print(df.to_string())
                              sequence                                    target  value_measured
0  TFALQLELT [SEQ ID NO: 6, TFALQLELT]  MHC class II RT1.B^L (Rattus norvegicus, UniProt P20037+P29826)     32 to 64 µM

Quick one: IC50 of TFGLQLELT [SEQ ID NO: 3, TFGLQLELT, reference compound] ?
32 to 64 µM

Quick one: IC50 of TFGLQLEAT [SEQ ID NO: 11, TFGLQLEAT] ?
32 to 64 µM

Quick one: IC50 of TFGLQLELA [SEQ ID NO: 12, TFGLQLELA] ?
32 to 64 µM

Quick one: IC50 of TFGLALELT [SEQ ID NO: 8, TFGLALELT] ?
> 256 µM

Quick one: IC50 of TFGAQLELT [SEQ ID NO: 7, TFGAQLELT] ?
8 to 16 µM

Quick one: IC50 of TAGLQLELT [SEQ ID NO: 5, TAGLQLELT] ?
64 to 128 µM

Quick one: IC50 of AFGLQLELT [SEQ ID NO: 4, AFGLQLELT] ?
64 to 128 µM

Quick one: IC50 of TFGLQAELT [SEQ ID NO: 9, TFGLQAELT] ?
32 to 64 µM

Quick one: IC50 of TFGLQLALT [SEQ ID NO: 10, TFGLQLALT] ?
128 to 256 µM

====

tested on: adjuvant arthritis; assay: Nasal peptide administration in the adjuvant arthritis model; type: in vivo, rats; settings: scale 0-16; 100 μg peptide nasal at days 0, 3, 7, 11; mean±sd, n=4 rats
A collection of sequences and their measured Arthritis score
// no unit string in output, number only

>>> df
                                   sequence  parameter_measured  value_measured
0  LKSVNGQIE (listed as Rattus sp.) [SEQ ID NO: 15]     Arthritis score             4.3
1  WPSLPSNMD (listed as Rattus sp.) [SEQ ID NO: 48]     Arthritis score            10.5
2  WPSLPSGLD (listed as Rattus sp.) [SEQ ID NO: 50]     Arthritis score            11.3

Quick one: Arthritis score of VSSFSLNVE (listed as Rattus sp.) [SEQ ID NO: 26] ?
11.0
